System: K562
Protocol text: cell viability relative to vehicle control; higher = less cytotoxic;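 also: after 48 h exposure read by CellTiter-Glo luminescence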
Condition details: 10 µM; SRSF2 genotype: SRSF2 wt/wt
Quantity kind: cell viability
Express your answer as a number followed by its unit.

compound="O=C(Nc1cccc2cccnc12)c1ccc(N2C(=O)C3C4C=CC(C4)C3C2=O)cc1 (stereo not drawn) [IWR-1-endo]" result=101%
compound=Cc1csc(-c2nnc(Nc3ccc(Oc4ncccc4-c4ccnc(N)n4)cc3)c3ccccc23)c1 result=81.4%
compound=CC(C)Oc1ccc(-c2cnc3c(-c4ccnc5ccccc45)cnn3c2)cc1 result=84.7%
compound=Nc1nc(N)c2nc(-c3cccc(O)c3)c(-c3cccc(O)c3)nc2n1 result=88.6%
compound="CC(C)(C)c1cc(/C=C(\\C#N)C(N)=S)cc(C(C)(C)C)c1O [Tyrphostin AG 879 (AG 879)]" result=25.2%
compound="COc1ccc([C@@H]2CC(=O)c3c(O)cc(O)cc3O2)cc1O [Hesperetin]" result=100%
compound="COc1cc(Nc2ncc(F)c(Nc3ccc4c(n3)N(COP(=O)(O)O)C(=O)C(C)(C)O4)n2)cc(OC)c1OC [R788 (Fostamatinib)]" result=59.4%

Turning to the following compound.
Assay K562, sample COc1ccnc(C[S+]([O-])c2nc3cc(-n4cccc4)ccc3[nH]2)c1C (stereo not drawn) [Ilaprazole] , cell viability read: 92.4%

###

Tested on: K562
Protocol text: cell viability relative to vehicle control; higher = less cytotoxic
Condition details: 10 µM; SRSF2 genotype: SRSF2 wt/wt
Quantity kind: cell viability (%)
A number alone suffices; assume %.

compound=CC(=O)Nc1cccc2c1c(Sc1ccc(Cl)cc1)c(C)n2CC(=O)O system=K562 quantity_kind="cell viability" recorded_number=100
compound="CC(C)(C)C(O)/C=C/c1ccc2c(c1)OCO2 (centres undefined) [Stiripentol]" system=K562 quantity_kind="cell viability" recorded_number=101
compound="CC[C@@](C)(Nc1ccnc(-c2c[nH]c3ncccc23)n1)C(=O)NCC(F)(F)F [Decernotinib (VX-509)]" system=K562 quantity_kind="cell viability" recorded_number=104
compound=CN1CCN(CCCNc2ncc(Cl)c(-c3cc4c(C(=O)NC5CC5)cccc4s3)n2)CC1 system=K562 quantity_kind="cell viability" recorded_number=93.2
compound="O=C(O)c1cn(C2CC2)c2cc(Cl)c(F)cc2c1=O [Fluoroquinolonic Acid]" system=K562 quantity_kind="cell viability" recorded_number=108
compound="COc1ccc(-c2oc3cc(O)cc(O)c3c(=O)c2O)cc1 [kaempferide]" system=K562 quantity_kind="cell viability" recorded_number=103

Per the record, N#Cc1ccc(C(c2ccc(C#N)cc2)n2cncn2)cc1 [Letrozole] has cell viability of 91.9

Per the record, CN(C)C(=O)COC(=O)Cc1ccc(OC(=O)c2ccc(NC(=N)N)cc2)cc1 [Camostat Mesilate (FOY-305)] has cell viability of 96.3

Per the record, O=C(Nc1nccs1)C(c1cc(F)ccc1O)N1Cc2ccccc2C1=O (centres undefined) has cell viability of 96.6

###

System: K562
Protocol text: cell viability relative to vehicle control; higher = less cytotoxic
Condition details: 10 µM; SRSF2 genotype: SRSF2 wt/wt
Where a name gives a salt, the structure may show the parent alone.
Examples of molecules with documented cell viability follow.
A number alone suffices; assume %.

Here are 5 molecules together with their reported answers.
molecule="CC[C@H]1[C@@H](O)[C@@H]2[C@H](CC[C@]3(C)[C@@H]([C@H](C)CCC(=O)O)CC[C@@H]23)[C@@]2(C)CC[C@@H](O)C[C@@H]12 [Obeticholic Acid]" unit_tag=% recorded_number=102
molecule="Cn1nnnc1SCC1=C(C(=O)O)N2C(=O)[C@@H](NC(=O)[C@H](OC=O)c3ccccc3)[C@H]2SC1 [S3638 Cefamandole (nafate).cdx]" unit_tag=% recorded_number=102
molecule="CNC[C@H](O)c1ccc(O)c(O)c1 [Epinephrine bitartrate (Adrenalinium)]" unit_tag=% recorded_number=94
molecule="C=CC(=O)N1CCC(Oc2cc3c(Nc4ccc(Cl)c(Cl)c4F)ncnc3cc2OC)CC1 [Poziotinib (HM781-36B)]" unit_tag=% recorded_number=65.6
molecule="CCCCCCCCCCCCCCCC(=O)OC [Methyl palmitate]" unit_tag=% recorded_number=100

Per the record, COc1cccc(CCc2ccccc2OCC(CN(C)C)OC(=O)CCC(=O)O)c1 (stereo not given) [Sarpogrelate hydrochloride] has cell viability of 92.4

Per the record, COC(=O)C1=C(C)NC(C)=C(C(=O)OC(C)C)C1c1cccc2nonc12 (stereo not given) [Isradipine (Dynacirc)] has cell viability of 97.3

###

Tested on: MOLM14
Protocol text: cell viability relative to vehicle control; higher = less cytotoxic
Condition details: 10 µM; SRSF2 genotype: SRSF2 P95H/wt
Structures can show the parent of a compound that is named as a salt.
Quantity kind: cell viability (%)
A number alone suffices; assume %.

Here are 3 molecules together with their reported answers.
molecule="COc1ccc2cc1Oc1ccc(cc1)C[C@H]1c3cc(c(OC)cc3CCN1C)Oc1c(O)c(OC)cc3c1[C@H](C2)N(C)CC3 [(+)-Fangchinoline]" recorded_number=0.71
molecule="C=C1C[C@@]23CC[C@H]4[C@@](C)(CCC[C@@]4(C)C(=O)O)[C@@H]2CC[C@]1(O[C@@H]1O[C@@H](CO)[C@@H](O)[C@H](O)[C@@H]1O[C@@H]1O[C@@H](CO)[C@@H](O)[C@H](O)[C@@H]1O)C3 [Steviolbioside]" recorded_number=118
molecule=COc1cc2oc(=O)ccc2c(OC)c1C[C@@H](O)C(C)(C)O recorded_number=112

Turning to the following molecule.
Per the record, COc1cc2nc(N(C)CCCNC(=O)C3CCCO3)nc(N)c2cc1OC (centres undefined) [Alfuzosin hydrochloride (Uroxatral)] has cell viability of 96.7

###

System: MOLM14
Protocol text: cell viability relative to vehicle control; higher = less cytotoxic
Condition details: 10 µM; SRSF2 genotype: SRSF2 wt/wt
Quantity kind: cell viability
Express your answer as a number followed by its unit.

Here are 2 molecules together with their reported answers.
molecule="CN(C)CCN1C(=O)c2cccc3cc(N)cc(c23)C1=O [Amonafide]" system=MOLM14 result=0.27%
molecule="OCC(O)C(O)C(O)C(O)CO (stereo not drawn) [Dulcitol]" system=MOLM14 result=106%

Assay MOLM14, sample `COc1cc(N2CCN(C)CC2)ccc1Nc1nccc(-c2cn(C)c3cnccc23)n1` , cell viability read: 1.65%

Assay MOLM14, sample C=C1C[C@@]23CC[C@H]4[C@@](C)(CCC[C@@]4(C)C(=O)O[C@@H]4O[C@H](CO)[C@@H](O)[C@H](O)[C@H]4O)[C@@H]2CC[C@]1(O[C@@H]1O[C@H](CO)[C@@H](O)[C@H](O)[C@H]1O)C3 [Rubusoside] , cell viability read: 103%

Assay MOLM14, sample `Cc1ccc(Nc2ncc3c(n2)N(C)C(=O)N(c2cc(NC(=O)c4cccc(C(F)(F)F)c4)ccc2C)C3)cn1` , cell viability read: 17.5%

###

System: OCI-AML2
Protocol text: cell viability relative to vehicle control; higher = less cytotoxic
Condition details: 10 µM; SRSF2 genotype: P95H/wt
Quantity kind: cell viability (%)
A number alone suffices; assume %.

compound=COc1ccc(-c2oc3c(CC=C(C)C)c(O[C@@H]4O[C@H](CO)[C@@H](O)[C@H](O)[C@H]4O)cc(O)c3c(=O)c2O[C@@H]2O[C@@H](C)[C@H](O)[C@@H](O)[C@H]2O[C@@H]2OC[C@@H](O)[C@H](O)[C@H]2O)cc1 recorded_number=103

Turning to the following compound.
Assay OCI-AML2, sample CC(C)(O)CC[C@@H](O)[C@](C)(O)[C@H]1CC[C@@]2(O)C3=CC(=O)[C@@H]4C[C@@H](O)[C@@H](O)C[C@]4(C)[C@H]3CC[C@]12C [20-Hydroxyecdysone] , cell viability read: 101

###

System: MOLM14
Protocol text: cell viability relative to vehicle control; higher = less cytotoxic
Condition details: 10 µM; SRSF2 genotype: SRSF2 wt/wt
Quantity kind: cell viability (%)
A number alone suffices; assume %.

Here are 5 compounds together with their reported answers.
compound=COc1cc2c(cc1OC)[C@H]1[C@@H](C)c3ccc(OC)c(OC)c3CN1CC2 system=MOLM14 unit_tag=% recorded_number=90.9
compound=CC(C)c1cc(C(C)C)c(CC(=O)NS(=O)(=O)Oc2c(C(C)C)cccc2C(C)C)c(C(C)C)c1 system=MOLM14 unit_tag=% recorded_number=78.6
compound=CCCC[C@@H](C=O)NC(=O)[C@H](CC(C)C)NC(=O)OCc1ccccc1 system=MOLM14 unit_tag=% recorded_number=98.9
compound=COc1cc2c(=O)c(-c3ccc(O)cc3)coc2cc1O[C@@H]1O[C@H](CO)[C@@H](O)[C@H](O)[C@H]1O system=MOLM14 unit_tag=% recorded_number=103
compound=CS(=O)(=O)c1ccc(-c2cnc(N)c(C(=O)Nc3ccccc3)n2)cc1 system=MOLM14 unit_tag=% recorded_number=110

Assay MOLM14, sample CC(C)CN(CC(=O)N1CCN(CC(OCc2ccc3ccccc3c2)c2ccc(Cl)cc2Cl)CC1)CC(C)C (configuration not stated) , cell viability read: 71

Assay MOLM14, sample `CC1(C)CC[C@]2(C(=O)O)CC[C@]3(C)C(=CC[C@@H]4[C@@]5(C)CC[C@H](O)C(C)(C)[C@@H]5CC[C@]43C)[C@@H]2C1` , cell viability read: 94.7

Assay MOLM14, sample `O=CN1CC/C(=C/c2ccc3c(c2)OCO3)C1=O` , cell viability read: 90.1
